Listed compounds paired with reported IC50
Tested on: RT-112
MEASUREMENT_NOTES: Cytotoxicity against human RT-112 cells assessed as cell growth inhibition after 48 hrs by MTT assay
Format: functional, cell-based
EXPERIMENTAL_CONTEXT: RT-112, 48 h
# number only, unit µM dropped from output

| COMPOUND_STRUCTURE | OBSERVED_MEASUREMENT |
| --- | --- |
| CC(=O)OC[C@@]12[C@H](O)[C@H](O)[C@]3(C)C(=CC[C@@H]4[C@@]5(C)CC[C@H](O[C@@H]6OC[C@H](O[C@@H]7O[C@H](CO)[C@@H](O)[C@H](O)[C@H]7O[C@@H]7OC[C@@H](O)[C@H](O)[C@H]7O)[C@H](O)[C@H]6O[C@@H]6O[C@H](CO)[C@@H](O)[C@H](O)[C@H]6O)C(C)(C)[C@@H]5CC[C@]43C)[C@@H]1CC(C)(C)C[C@@H]2O | 7.8 |
| CC(=O)O[C@H]1C(=O)[C@@]2(C)[C@H]([C@H](OC(=O)c3ccccc3)[C@]3(O)C[C@H](OC(=O)[C@H](O)[C@@H](NC(=O)c4ccccc4)c4ccccc4)C(C)=C1C3(C)C)[C@]1(OC(C)=O)CO[C@@H]1C[C@@H]2O | 0.07 |

// next entry
Q: Which IC50 reading was recorded for the compound CC(=O)O[C@H]1CC(C)(C)C[C@H]2C3=CC[C@@H]4[C@@]5(C)CC[C@H](O[C@@H]6OC[C@H](O[C@@H]7O[C@H](CO)[C@@H](O)[C@H](O)[C@H]7O[C@@H]7OC[C@@H](O)[C@H](O)[C@H]7O)[C@H](O)[C@H]6O[C@@H]6O[C@H](CO)[C@@H](O)[C@H](O)[C@H]6O)C(C)(C)[C@@H]5CC[C@@]4(C)[C@]3(C)[C@@H](O)[C@@H](O)[C@@]12CO ?
Result: 6.4
